Listed below: composite z-score values for each entry.
Test system: Sam68 (KHDRBS1)
ASSAY NAME: compounds binding KHDRBS1 protein – biochemical, small-molecule microarray, 635 nm fluorescence, primary screen (AID 1125);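 note: score merges 667 nm channel intensity with signal to noise over triplicate slides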
EXPERIMENTAL SETUP: higher = more signal
MEASUREMENT LABEL: composite z-score

molecule=C[N+](C)(C)CCCC[C@@H]1NC(=O)[C@@H]2C[C@H](C(=O)NCCCCCCNC(=O)CS)[C@H](c3ccc(O)cc3)N2C1=O study_target="Sam68 (KHDRBS1)" reported=-0.731
molecule=COCCOC(=O)N1C(=O)[C@@]2(c3cc(C#Cc4ccc(OC)cc4)ccc31)[C@H](c1ccc(O)cc1)N1[C@H](c3ccccc3)[C@H](c3ccccc3)OC(=O)[C@H]1[C@@H]2C(=O)Nc1nc2ccccc2s1 study_target="Sam68 (KHDRBS1)" reported=1.3
molecule=C=CCNC(=O)[C@@H]1[C@H]2C(=O)O[C@H](c3ccccc3)[C@H](c3ccccc3)N2[C@H](c2ccc(OCCO)cc2)[C@@]12C(=O)N(C(=O)OCCOC)c1ccc(C#CCC(C(=O)OC)C(=O)OC)cc12 study_target="Sam68 (KHDRBS1)" reported=1.31
molecule=NCCCCCCNC(=O)[C@H]1C[C@H]2C(=O)N[C@@H](Cc3ccccc3)C(=O)N2[C@H]1c1cccc(OCCO)c1 study_target="Sam68 (KHDRBS1)" reported=0.58
molecule="O=C1NC(=O)C2C1C=CC(C(O)c1ccc(I)cc1)N2Nc1ccc(Cl)cc1Cl (configuration not stated)" study_target="Sam68 (KHDRBS1)" reported=1.22
molecule="CC(C)N1CC=CC23O[C@@H]4C=CCOC(=O)[C@@H]4[C@H]2C(=O)N(CCCCCO)[C@@H]3C1=O (some centres not stated)" study_target="Sam68 (KHDRBS1)" reported=-0.135
molecule=O=C(O)[C@H]1C[C@H]2C(=O)N3CCC[C@H]3C(=O)N2[C@H]1c1ccc(O)cc1 study_target="Sam68 (KHDRBS1)" reported=-0.132

###

Listed below: z-score values for each entry.
ASSAY NAME: budding yeast growth modifiers under rapamycin – strain BY4716, OD600, 96 h, primary screen (AID 1091); note: test concentration not given here
EXPERIMENTAL SETUP: S. cerevisiae BY4716 + rapamycin, higher = more signal, called active from +8 up or from −8 down
MEASUREMENT LABEL: z-score

molecule="CN1CCC(CCCO)=CC1c1cccs1 (stereo not given)" measurement_label=z-score reported=-0.489
molecule=COCCOC(=O)N1C(=O)[C@@]2(c3cc(C#CCCO)ccc31)[C@H](c1ccc(OCCO)cc1)N1[C@H](c3ccccc3)[C@H](c3ccccc3)OC(=O)[C@H]1[C@@H]2C(N)=O measurement_label=z-score reported=6.06
molecule=CC[C@@H]1C=C(C(=O)O)[C@H](c2ccc(C)cc2)N1S(=O)(=O)c1ccc(C)cc1 measurement_label=z-score reported=-0.564
molecule="COc1ccc(C(O)C2C=CC3C(=O)N(C)C(=O)C3N2N(c2ccccc2)c2ccccc2)c2ccccc12 (stereo not given)" measurement_label=z-score reported=0.375
molecule=CCOC(=O)[C@H]1C/C=C/C[C@H](C(=O)OCC)C(=O)O[C@H]2[C@@H](OC)O[C@H](CO)[C@@H](OC(=O)c3ccc(Br)cc3)[C@@H]2OC1=O measurement_label=z-score reported=2.17
molecule=COC(=O)c1c2oc(c1C(=O)OC)C(=O)NC1(CCCCC1)c1cn(nn1)C[C@H](Cc1ccccc1)NC(=O)N[C@H](CO)CC2 measurement_label=z-score reported=-0.466
molecule=COCCOC(=O)N1C(=O)[C@@]2(c3cc(C#CC4=CCCCC4)ccc31)[C@H](C(N)=O)[C@H]1C(=O)O[C@H](c3ccccc3)[C@H](c3ccccc3)N1[C@@H]2c1ccc(O)cc1 measurement_label=z-score reported=0.0591
molecule="CCOc1cc(C(O)C2C=CC3C(=O)N(c4ccccc4)C(=O)C3N2Nc2ccc(C(C)C)cc2)ccc1O (stereo not given)" measurement_label=z-score reported=0.597
molecule="C=CC1c2cc(O)c(OC)cc2CCN1Cc1cccc(OC(F)(F)F)c1 (stereo not given)" measurement_label=z-score reported=-3.13
molecule=CC(=CC1CCCCC1)[C@@H](NC(=O)c1cccnc1)c1ccc(-c2ccccc2)cc1 measurement_label=z-score reported=2.06
molecule=C=CC[C@]1(C(N)=O)COC(c2ccc(OCCCO)cc2)=N1 measurement_label=z-score reported=-1.09
molecule=CCCCCCc1nc(-c2ccc(-c3ccc(Cl)c(Cl)c3)o2)c(C)c2c1[Si](C(C)C)(C(C)C)OC2 measurement_label=z-score reported=0.0962
molecule="C=CCC(OC(C)=O)[C@@H]1[C@@H](N(Cc2ccc(-c3cccc(C(F)(F)F)c3)o2)C(=O)Cc2ccc(OC)cc2)c2cc(OCCCO)ccc2N1C(=O)c1ccc2ccccc2c1 (stereo not given in full)" measurement_label=z-score reported=-0.645
molecule="O=C1OCC=C[C@H]2OC34C=CCN(CCN5CCOCC5)C(=O)[C@H]3N(CCO)C(=O)[C@@H]4[C@@H]12 (stereo not given in full)" measurement_label=z-score reported=-0.12
molecule=COC(=O)[C@@]1(Cc2ccc(F)cc2)[C@H]2c3cc(C(=O)N(C)C)n(Cc4ccc(C)o4)c3C[C@H]2CN1C(=O)c1ccccc1 measurement_label=z-score reported=0.792
molecule="CCCCCCCCCCC(O)C1C=CC2C(=O)NC(=O)C2N1Nc1ccc(Cl)cc1Cl (stereo not given)" measurement_label=z-score reported=0.309
molecule=CCCCC(=C=CC[C@@H](O)c1cccc(OCCO)c1)C[C@@H](O)c1ccccn1 measurement_label=z-score reported=-0.725
molecule="O=C1C2C=CC(C(O)COCc3ccccc3)N(Nc3ccc([N+](=O)[O-])cc3)C2C(=O)N1c1ccccc1 (stereo not given)" measurement_label=z-score reported=2.16
molecule="CS(=O)(=O)CCOC(=O)C1=CC(CCCO)=CC(c2ccc(CN3CCCC3)cc2)N(Cc2cccc(OC(F)(F)F)c2)C=C1C(=O)OCCS(C)(=O)=O (stereo not given)" measurement_label=z-score reported=-0.805
molecule=COCCCNC(=O)[C@@]1(Cc2ccccc2)N=C(c2ccc(OCCCO)cc2)O[C@H]1c1ccccc1CN=[N+]=[N-] measurement_label=z-score reported=0.463
molecule=CO[C@H]1O[C@H](CO)[C@@H](OC(=O)Nc2cccc(F)c2)[C@H](OC(=O)Nc2ccccc2)[C@H]1OC(=O)Nc1ccccc1 measurement_label=z-score reported=5.68
molecule=C=C(/C(=C/C[C@H](OC(=O)c1ccncc1)c1ccc(OCCO)cc1)c1cc(C(=O)OC)ccc1OC)C(C)C measurement_label=z-score reported=-0.359
molecule="C=CCC(OC(C)=O)[C@@H]1[C@@H](N(Cc2ccc(-c3ccccc3)cc2)C(=O)Cc2ccc(F)cc2)c2cc(OCCCO)ccc2N1C(=O)c1ccc2ccccc2c1 (stereo not given in full)" measurement_label=z-score reported=0.14
molecule="CCC(CC)C(O)C1C=CC2C(=O)N(c3ccccc3)C(=O)C2N1Nc1ccccc1 (stereo not given)" measurement_label=z-score reported=0.204
molecule=CCOC(=O)C[C@H]1[C@H](OC(=O)c2cc3ccccc3oc2=O)[C@@H](NC(=O)CC(C)C)c2cc(OCCCO)ccc2N1C(=O)c1ccccc1 measurement_label=z-score reported=-0.193
molecule=CCOC(=O)C1=CC[C@H]2C(=O)N(c3ccccc3)C(=O)[C@@H]12 measurement_label=z-score reported=-0.487
molecule=COCCOC(=O)N1C(=O)[C@@]2(c3cc(C#CC4(O)CCCCCC4)ccc31)[C@H](C(=O)Nc1nc3ccccc3s1)[C@H]1C(=O)O[C@H](c3ccccc3)[C@H](c3ccccc3)N1[C@@H]2c1ccccc1OCCO measurement_label=z-score reported=2.12
molecule=COCCOC(=O)N1C(=O)[C@@]2(c3cc(C#CC4(O)CCCCCC4)ccc31)[C@H](C(=O)Nc1nc3ccccc3s1)[C@H]1C(=O)O[C@H](c3ccccc3)[C@H](c3ccccc3)N1[C@@H]2c1ccc(OCCO)cc1 measurement_label=z-score reported=4.01
molecule="CC(C)N1CC=CC23O[C@@H]4C=CCOC(=O)[C@@H]4[C@H]2C(=O)N(CCCCCO)[C@@H]3C1=O (stereo not given in full)" measurement_label=z-score reported=-2.25
molecule=COCCCNC(=O)[C@@]1(Sc2ccc(C)cc2)CC(=O)N(Cc2ccccc2Cl)[C@@H]1c1ccc(CO)cc1 measurement_label=z-score reported=-0.439

###

ASSAY NAME: S. pombe growth modifiers, basal conditions – strain 972, OD600, 24 h, no modulator, primary screen (AID 1090);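 note: basal condition with compound alone and no growth modifier present; test concentration not given here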
EXPERIMENTAL SETUP: S. pombe 972 growth, higher = more signal, called active from +8 up or from −8 down
MEASUREMENT LABEL: z-score

compound="C[C@H]1C2[C@H](Cc3ccccc3)NC(=O)[C@]23C(=O)NCC(=O)N2CCC[C@H]2C(=O)NC/C=C/CCC/C=C/C3[C@@H]2O[C@]12C (stereo not given in full)" reported=-0.0836
compound=O=C(O)[C@@]1(CCS(=O)(=O)c2ccccc2)N=C(c2ccc(OCCCO)cc2)O[C@H]1c1ccccc1 reported=-5.25
compound=COCCOC(=O)N1C(=O)[C@@]2(c3cc(C#CCCO)ccc31)[C@H](c1ccc(O)cc1)N1[C@H](c3ccccc3)[C@H](c3ccccc3)OC(=O)[C@H]1[C@@H]2C(=O)N1CCN(c2ncccn2)CC1 reported=0.686
compound=COC(=O)[C@@]1(Cc2ccccc2)[C@H]2c3cc(C(=O)N(C)C)n(CCc4c[nH]c5ccc(O)cc45)c3C[C@H]2CN1C(=O)c1ccccc1 reported=1.25
compound=O[C@@H](Cc1ccccc1)[C@@H](/C=C/C1CC1)NCc1cccc(Cl)c1 reported=-19
compound="CC1CC/C=C\\[C@H]2OC34C=CCN(Cn5nnc6ccccc65)C(=O)[C@H]3N(CCCCCO)C(=O)[C@@H]4C2C(=O)O1 (stereo not given in full)" reported=0.423
compound=CCCNC(=O)[C@@]1(Sc2ccc(C)cc2)CC(=O)N(Cc2ccccc2C(F)(F)F)[C@@H]1c1ccc(CO)cc1I reported=-2.45
compound=COCCCNC(=O)[C@@H]1c2ccccc2C(=O)N(Cc2ccccc2)[C@H]1c1ccc(CO)cc1 reported=-0.0108
compound="O=C1OCC=C[C@H]2OC34C=CCN(CCN5CCOCC5)C(=O)[C@H]3N(CCO)C(=O)[C@@H]4[C@@H]12 (stereo not given in full)" reported=-0.537
compound="Cc1ccc(C2C3C(=O)CC4C(=O)N(c5ccccc5)C(=O)C4C3CN2S(=O)(=O)c2ccc(C)cc2)cc1 (stereo not given)" reported=0.499
compound="O=C1OCCC/C=C\\[C@H]2OC34C=CCN(c5ccc6ccccc6c5)C(=O)[C@H]3N(CCCCCO)C(=O)[C@@H]4C12 (stereo not given in full)" reported=-1.52
compound=[N-]=[N+]=NCc1ccccc1[C@@H]1OC(c2ccc(OCCCO)cc2)=N[C@]1(CCS(=O)(=O)c1ccccc1)C(N)=O reported=-1.17
compound=CCOC(=O)C1=CC[C@@H](c2ccc(C(F)(F)F)cc2)N(S(=O)(=O)c2ccc(C)cc2)[C@H]1c1ccccc1 reported=-0.482
compound="O=C1OCCC=C[C@H]2OC34C=CCN(Cn5nnc6ccccc65)C(=O)[C@H]3N(CCO)C(=O)[C@@H]4C12 (stereo not given in full)" reported=0.785
compound="COc1ccc(NN2C(C(O)c3ccc(N(C)C)cc3)C=CC3C(=O)N(C4CCCCC4)C(=O)C32)cc1 (stereo not given)" reported=0.594
